Parameter half-life: see the listing below.
assay: Half life in CD-1 mouse at 5 mg/kg, iv measured after 0.083 to 24 hrs by LC-MS/MS analysis; type: ADME, organism-based; settings: in vivo, time 0.083-24 hrs
Write the answer as a number in h, unit excluded.

Measured half-life, O=C(CCCCCCNC(=O)c1cnc(N(c2ccccc2)c2ccccc2)nc1)NO : 2.62

Memo: CCNNC(=O)c1ccc(CN2c3ccccc3C=Cc3ccncc32)cc1 , reported half-life: 7.95

---

experiment: Brain concentration in CD-1 mouse at 20 mg/kg measured after 2 hrs by LC-MS/MS analysis; type: ADME, organism-based; conditions: read-out: Ct
readout_label: concentration at 2 h
Write the quantity with the unit trailing the number.

Short answer for CCNNC(=O)c1ccc(CN2c3ccccc3C=Cc3ccncc32)cc1 : concentration at 2 h was 3280 ng/mL
